The values you see were collected from PubChem BioAssay (NCI).

Tested on: CAKI-1 renal
Assay: NCI-60 one-dose screen, 48 h
Details: 10 µM unless noted
The panel holds about 83,000 compounds, 20% with a hit somewhere; the sample as a whole holds those more often. Calls of active or inactive are those of the source. How the source made its calls: active means growth percent below 10; inactive means the rest.
Form entry, call: pick from YES for active, NO for inactive

Before answering, review these 5 worked examples.
Problem: Record lookup: outcome of this test for `COc1cc(NCCCCCN=C(N)N)c2ncccc2c1` ?
Solution: NO

Problem: Do the same for CC(=O)C1CCC2C3CC=C4CC(OC(=O)Cc5ccc(N(CCCl)CCCl)cc5)CCC4(C)C3CCC12C (configuration not stated) please
Solution: NO

Problem: Do the same for `C[C@]12C[C@H](O)[C@H]3[C@@H](CCC4=CC(=O)CC[C@@]43C)[C@@H]1CC[C@@H]2O` please
Solution: NO

Problem: Do the same for CNc1ccc(C(=O)CC(O)CCC(C)C2OC(=O)CC(O)CC(=O)CC(O)CC(O)CC(O)CC(O)CC3(O)CC(O)C(C(=O)OC)C(CC(O[C@@H]4O[C@H](C)[C@@H](O)[C@H](N)[C@@H]4O)/C=C/C=C/C=C/C=C/C=C/C=C/C=C/C2C)O3)cc1 (some centres not stated) please
Solution: YES

Problem: Do the same for `CC(C)(O)/C=C/C(=O)[C@](C)(O)[C@H]1[C@H](O)C[C@@]2(C)[C@@H]3CC=C4[C@@H](C=C(O)C(=O)C4(C)C)[C@]3(C)C(=O)C[C@]12C` please
Solution: YES

Continuing:
Problem: Record lookup: outcome of this test for `O=C1NC(=S)NC(=O)C1=Cc1ccccc1` ?
Solution: NO

Problem: Do the same for `CCCCn1cc(C(=O)/C(C#N)=C/c2cc3ccccc3nc2Cl)c2cc(OC)ccc21` please
Solution: NO

----------
# growth listing for each entry below
Tested on: SF-539 CNS
Experiment: NCI-60 one-dose screen, 48 h (100 = growth as untreated, 0 = no growth, -100 = all killed)
Conditions: 10 µM unless noted
Compounds without any hit were thinned out: in the full panel of roughly 83,000, 20% have a hit.
Answer format: numeric, % implied, no suffix.

Example entries and their recorded answers appear below.
Problem: Suppose we examine the molecule `Cc1nnc([S-])s1.[Au+].c1ccc([PH+](c2ccccc2)c2ccccc2)cc1` ; what growth value has been reported?
Solution: -22.9

Problem: Do the same for `C[As](=O)(O)c1ccc(C(=O)O)cc1` please
Solution: 102

Problem: Do the same for `CCCC(C)(C)c1ccc2c(c1)OC(C)(C)[C@@H]1CC=C(C)C[C@@H]21` please
Solution: 104

Problem: Do the same for `n1nc(-c2nonc2-c2nn[nH]n2)n[nH]1` please
Solution: 115

Problem: Do the same for `COc1cc(CNCCc2ccc(Cl)cc2)cc(OC)c1O` please
Solution: 68.7

Continuing:
Problem: Suppose we examine the molecule `CCOC(=O)C1(c2ccccc2)CCN(CC(=O)c2ccc(NC(C)=O)cc2)CC1` ; what growth value has been reported?
Solution: 113

Problem: Do the same for `CC[C@H](C)[C@H](NC(=O)Nc1ccccc1)C(=O)N(C)[C@H](C[C@@H](OC(C)=O)c1nc(C(=O)N[C@@H](Cc2ccccc2)C[C@H](C)C(=O)OC)cs1)C(C)C` please
Solution: -26.3

Problem: Do the same for `ClCCN(CCCl)c1ccc(C=NCCc2c[nH]c3ccccc23)cc1` please
Solution: 71.8

Problem: Do the same for `C[CH2][Pb]([CH2]C)([CH2]C)[O]C(=O)COc1ccccc1` please
Solution: -21.8

Problem: Do the same for `C/C1=C/C(=O)O[C@@H]2C[C@@H](CC[C@H](C)/C=C\C=C\CC1)O[C@@](OCCc1ccccc1)([C@@H]1CSC(=O)N1)C2` please
Solution: 9.84

Problem: Do the same for `O=C(O)c1cccc(CCl)c1` please
Solution: 94.3

Problem: Do the same for `O=C(NCc1ccc([N+](=O)[O-])cc1)Nc1ccc(S(=O)(=O)F)cc1` please
Solution: 88.3

Problem: Do the same for `CCCCOC(=O)c1ccccc1C(=O)O.CCCCOC(=O)c1ccccc1C(=O)O.[Cu+2]` please
Solution: 111

Problem: Do the same for `O=[N+]([O-])c1ccc2cnn(CSP(=S)(c3ccccc3)c3ccccc3)c2c1` please
Solution: 82.7

Problem: Do the same for `O=[N+]([O-])c1ccccc1N1CCNCC1` please
Solution: 99.8

Problem: Do the same for `OB([O][Hg][c]1ccccc1)[O][Hg][c]1ccccc1` please
Solution: -87.7

Problem: Do the same for `CC1(C)CC(=O)CC(C)(C)N1N=O` please
Solution: 94.3

Problem: Do the same for C[C@]12CC[C@H](OC3OC(O)C(O)C(O)C3O)C=C1CCC1C2CC[C@]2(C)[C@@H](c3ccc(=O)oc3)CC[C@]12O (stereo partly specified) please
Solution: -83.1

Problem: Do the same for `COC(=O)C[Se]C(=O)c1ccccc1OC(C)=O` please
Solution: 75.1

Problem: Do the same for CCC(C)[C@H]1O[C@]2(C=C[C@@H]1C)C[C@@H]1C[C@@H](C/C=C(\C)[C@@H](OC3C[C@H](OC)C(O[C@H]4C[C@H](OC)[C@@H](O)[C@H](C)O4)[C@H](C)O3)[C@@H](C)/C=C/C=C3\CO[C@@H]4[C@H](O)C(C)=C[C@@H](C(=O)O1)[C@]34O)O2 (stereo partly specified) please
Solution: -71.6

Problem: Do the same for `CNC(=O)Oc1cccc(OC)c1` please
Solution: 111

Problem: Do the same for COc1ccc2c(c1)NC1=C(C(=O)OC1)C2c1cc(OC)c(OC)c(OC)c1 (stereo unspecified) please
Solution: -4.41

Problem: Do the same for `O=S(=O)(O)c1ccc(-c2ccc([As](=O)(O)O)cc2)cc1` please
Solution: 105

Problem: Do the same for `C[C@]12CC[C@@H]3C4=C(CC[C@H]3[C@@H]1CC[C@@H]2O)CC(=O)CC4` please
Solution: 103

----------
System: HL-60(TB) leukemia
Test: NCI-60 one-dose screen, 48 h
Conditions: 10 µM unless noted
The panel holds about 83,000 compounds, 20% with a hit somewhere; the sample as a whole holds those more often. Calls of active or inactive are those of the source. The calls were made as follows: active = growth percent below 10; inactive = the rest.
Form entry, call: pick from y for active, n for inactive

Problem: Record lookup: outcome of this test for `COc1ccc2c(=O)c(OC)c(-c3cc(OC)c(OC)c(OC)c3)oc2c1` ?
Solution: n

Problem: Do the same for CC1O[C@@H](OC2[C@H](OC(=O)/C=C/c3ccc(O)c(O)c3)C(COC3O[C@H](C)C(O)C(O)[C@@H]3O)O[C@@H](OCCc3ccc(O)c(O)c3)[C@H]2O)[C@@H](O)C(O)[C@H]1O (some centres undefined) please
Solution: n

Problem: Do the same for `O=C(Nc1cccc2ccccc12)c1cc2ccccc2cc1O` please
Solution: y

Problem: Do the same for `Fc1ccccc1Nc1ccc2nnc(-c3ccncc3)n2n1` please
Solution: n

Problem: Do the same for `CN(C)Cc1c(-c2ccccc2)[nH]c2ccccc12` please
Solution: n

Continuing:
Problem: Record lookup: outcome of this test for `Oc1ccc(-c2nc(-c3ccc4oc5ccc(-c6[nH]c(-c7ccc(O)cc7)nc6-c6ccccc6)cc5c4c3)c(-c3ccccc3)[nH]2)cc1` ?
Solution: n

Problem: Do the same for `COc1ccc2[nH]c3nc4cnccc4cc3c2c1` please
Solution: n

Problem: Do the same for `O=C(NO)c1ccc(Cn2c(=O)n(CCc3ccccc3)c(=O)c3ccccc32)cc1` please
Solution: n

Problem: Do the same for `COC(=O)c1c2c(n3ccccc13)C(=O)c1ccccc1C2=O` please
Solution: n

----------
Test system: PC-3 prostate
Assay: NCI-60 one-dose screen, 48 h (100 = growth as untreated, 0 = no growth, -100 = all killed)
Conditions: 10 µM unless noted
Protocol: Growth inhibition of the PC-3 human tumor cell line is measured as a screen for anti-cancer activity. Cells are grown in 96 well plates and exposed to the test compound for 48 hours. Compounds are tested at a single concentration, which is 10^-5 M for most compounds. The reported endpoint is percent growth (GI% or GIPRCNT), where numbers from 0 - 100% represent growth inhibition, and numbers from -100% - 0 represent cell death. For example, a value of 40 represents 60% growth inhibition. […]
About 83,000 compounds went through this panel and 20% of them were active in at least one assay; those are over-represented in the sample as a whole.
# growth listing for each entry below
Answer format: numeric, % implied, no suffix.

Problem: Suppose we examine the compound COc1ccc(C2SCC(=O)Nc3c2c(C)nn3-c2nc3ccc(C)cc3s2)cc1O (centres undefined) ; what growth value has been reported?
Solution: 19.9

----------
# growth listing for each entry below
Test system: SW-620 colon
Test: NCI-60 one-dose screen, 48 h (100 = growth as untreated, 0 = no growth, -100 = all killed)
Settings: 10 µM unless noted
The panel holds about 83,000 compounds, 20% with a hit somewhere; the sample as a whole holds those more often.
Answer format: numeric, % implied, no suffix.

Example entries and their recorded answers appear below.
Problem: Suppose we examine the compound O=S(=O)(Cl)c1ccccc1 (tested in a mixture with another compound) ; what growth value has been reported?
Solution: 96.9

Problem: Do the same for `C1CN1c1nc(N2CC2)nc(N2CC2)n1` please
Solution: 51.8

Continuing:
Problem: Suppose we examine the compound `NC(=O)C(Cl)Cl` ; what growth value has been reported?
Solution: 113

Problem: Do the same for `N#Cc1ncc(/N=C/c2ccc(N(CCCl)CCCl)cc2)s1` please
Solution: 79.4

Problem: Do the same for `CC(=O)Oc1ccc(Cl)cc1` please
Solution: 89.9

Problem: Do the same for C[C@]12CCC(=O)CC1CC[C@@H]1C2CC[C@@]2(C)C1CC[C@@H]2OC(=O)CC[Se][Se]CCC(=O)O[C@H]1CCC2[C@@H]3CCC4CC(=O)CC[C@]4(C)C3CC[C@@]21C (stereo not given in full) please
Solution: 122

Problem: Do the same for C[C@]12CC[C@H](OC3OC(O)C(O)C(O)C3O)C=C1CCC1C2CC[C@]2(C)[C@@H](c3ccc(=O)oc3)CC[C@]12O (stereo not given in full) please
Solution: -90.5

Problem: Do the same for `COC(=O)C(=[N+]=[N-])C(=O)OC` please
Solution: 100

Problem: Do the same for CC(=O)N1N=C(c2ccccc2)CC1c1sc(N(CCCl)CCCl)nc1Cl (stereo not given) please
Solution: 96.8

Problem: Do the same for `CC(=O)[O][Hg][c]1ccccc1` please
Solution: -92.9
